Tested on: BRK
Construct: gene PTK6
Conditions: concentration: 1 μM,replicates: in singlicate; n = 1;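 note: KINOMEscan kinase panel screen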
RECORDED_METRIC: %Inh (%)
Give just the number in %; leave the unit off.

For CCn1c(-c2nonc2N)nc2cncc(CNC3CCNCC3)c21.Cl , what is its reported %Inh?
0

Cc1nnc(-c2ccc3occ(-c4ccc(S(C)=O)cc4)c3n2)o1 (centres unmarked) , same question.
0

Then C[C@@H](Oc1cc(-n2cnc3cc(-c4ccncc4)ccc32)sc1C(N)=O)c1ccccc1Cl ?
15

Again, but for Cn1ccc2ncnc(Oc3ccc(NC(=O)Nc4cnn(C(C)(C)C)c4)c(Cl)c3)c21
0

Repeat with COc1cc2nccc(Nc3ccc(Oc4ccccc4)cc3)c2cc1OC.Cl
96.1

----------
Test system: SBK1
Conditions: concentration: 1 μM,replicates: in singlicate; n = 1
Quick list: %Inh per entry.
Just the number in %, nothing appended.

A selection of reference data follows.
>>> df
                                   compound  target_of_assay  units  reported_value
0  Cc1nnc(-c2ccc3occ(-c4ccc(S(C)=O)cc4)c3n2)o1 (centres unmarked)             SBK1      %               0
1  COc1cccc(OC)c1C(=O)Nc1cccc(-c2nn3ccccc3c2-c2ccnc(Nc3cccc(F)c3)n2)c1             SBK1      %               0
2  Cc1ccn2nc(-c3ccc(F)cc3)c(-c3ccncc3)c2c1.Cl             SBK1      %              10
3  C[C@@H]1CCN(C(=O)N2CCCC2)C[C@@H]1N(C)c1ncnc2[nH]ccc12             SBK1      %              19

Which %Inh value is on record for CSc1nccc(-c2c(-c3ccc(F)cc3)ncn2CCCN2CCOCC2)n1.Cl ?
6

----------
System: PIP5K1A
Conditions: concentration: 1 μM,replicates: in singlicate; n = 1
Use 10% as the dividing line for %Inh, with the line itself on the label 1 side and lower values as label 0.

Textbook exercise: given the entry FC(F)(F)c1cc(Br)cc(Nc2nccc(-c3cnn4ncccc34)n2)c1 [GW810578] , state whether its %Inh is greater than or equal to 10%.
label 0

----------
Test system: MAP4K2
Settings: concentration: 1 μM,replicates: in singlicate; n = 1
Reported %Inh values follow for various compounds
Please make sure the unit comes right after the number.

As a guide, the following entries are already answered.
In [3]: df
Out[3]:
                                   compound  recorded_metric  reported_value
0  CS(=O)c1ccc(-c2coc3ccc(-c4n[nH]c(=O)o4)cc23)cc1 (stereo not shown)             %Inh              2%
1  Cc1nnc(-c2ccc3occ(-c4ccc(S(C)=O)cc4)c3n2)o1 (stereo not shown)             %Inh              0%
2  Cn1ccc2ncnc(Oc3ccc(NC(=O)Nc4cncc(C(F)(F)F)c4)c(Cl)c3)c21             %Inh              0%
3  CC(=O)Nc1ccc(-c2cc3ncnc(SCC(=O)O)c3s2)cc1             %Inh             17%
4  Cc1ccc(CC(=O)N2CCc3cc(-c4cn(C)c5ncnc(N)c45)ccc32)cc1             %Inh              3%

Please report the recorded %Inh for OCCn1cc(-c2cnc3nnn(Cc4ccc5ncccc5c4)c3n2)cn1 .
0%

// repeat for c1ccc(Oc2ccc(Nc3ccnc4ccc(-c5ccccn5)cc34)cc2)cc1 and report
0%

Also O=c1[nH]cc(-c2ccc(O)cc2)c2sc(-c3ccncc3)cc12 , if possible.
0%

Try the compound CNC(=O)c1ccccc1Nc1nc(Nc2cccc(CS(C)(=O)=O)c2)ncc1C.O=CO
96.3%

Same for CN1CCN(CCCNc2nccc(-c3c(-c4ccc(F)cc4)nn4cc(C(N)=O)ccc34)n2)CC1
0%

----------
Reported %Inh by item:
System: HIPK2
Details: concentration: 1 μM,replicates: in singlicate; n = 1
Answer in %, number only, no unit symbol.

                                   molecule  recorded_metric  reported_value
0  CCn1c(-c2nonc2N)nc2cncc(CNC3CCNCC3)c21.Cl [SB-747651]             %Inh               0
1  COC(=O)c1cccc(NC(=O)NC2CCN(c3ccnc(NCc4ccc(F)cc4)n3)CC2)c1 [GSK1379860]             %Inh              47
2  OCCn1cc(-c2cnc3nnn(Cc4ccc5ncccc5c4)c3n2)cn1             %Inh               0
3      Cn1cc(-c2cccc3c(N)c(C(N)=O)nnc23)cn1             %Inh              62
4  c1ccc(Oc2ccc(Nc3ccnc4ccc(-c5ccccn5)cc34)cc2)cc1 [GW407034]             %Inh               0
5  CS(=O)(=O)c1cccc(CNc2nc(Nc3ccc4c(c3)[C@@H]3C[C@@H]4CNC3=O)ncc2C(F)(F)F)c1             %Inh              34
6  CN(c1ccccc1CNc1nc(Nc2ccc3c(c2)CC(=O)N3)ncc1C(F)(F)F)S(C)(=O)=O             %Inh              80
7  Cl.Nc1n[nH]c2cc(-c3ccccn3)ccc12 [GSK2189892]             %Inh               0
8  Cc1ccc2c(-c3ccnc(Nc4ccc(C(F)(F)F)cc4)n3)cnn2n1 [GW819776]             %Inh              80
9  COc1cc2nccc(Nc3ccc(Oc4ccccc4)cc3)c2cc1OC.Cl [GI261656]             %Inh               0

GET /values?readout=%Inh&item= C[C@@H](Oc1cc(-n2cnc3ccc(-c4ccncc4)cc32)sc1C(N)=O)c1ccccc1Cl [GSK483724]
19

Next molecule: CC(=O)Nc1nc2cnc(Nc3cc(NC(=O)c4cccc(CC(C)(C)C#N)c4)ccc3C)nc2s1
10

// repeat for CC(C)c1nc(-c2cccc(NS(=O)(=O)c3ccccc3)c2)c(-c2ccnc(Nc3ccc4c(c3)CN(C)CC4)n2)s1 [GSK1649598] and report
58

Next record, please: O=C(NCC1CC1)c1ccc(-c2cc(C(=O)NC3CC3)ccc2F)cc1 [GW810445]
0

Here is the next molecule: Cn1ccc2ncnc(Oc3ccc(NC(=O)Nc4cncc(C(F)(F)F)c4)c(Cl)c3)c21
0

Can you check CS(=O)(=O)Nc1ccc(-c2ccnc3[nH]ccc23)cc1 [GSK993273] next?
8

What would you report for C[C@@H](Oc1cc(-n2cnc3cc(-c4ccncc4)ccc32)sc1C(N)=O)c1ccccc1Cl [GSK479719] ?
0

Then this molecule: N#Cc1cccc(C(=O)NC2CCN(c3ccnc(Nc4ccc(F)cc4)n3)C2)c1 (stereo not drawn) [GSK1379708]
3

----------
Tested on: LZK
Construct: gene MAP3K13
Conditions: concentration: 1 μM,replicates: in singlicate; n = 1
Collected %Inh values appear next to each entry.
// units = %; emit number, no label

>>> df
                                   compound  units  reported_value
0  COc1ccc(Nc2nccc(N3CCC(NC(=O)c4cccc(C#N)c4)C3)n2)cc1 (stereo not drawn)      %               0

Query (compound): CCn1c(-c2nonc2N)nc2cncc(CNC3CCNCC3)c21.Cl ; field requested: %Inh
8

Then CC(C(=O)NC1CCN(c2ccnc(Nc3ccc(F)cc3)n2)C1)c1ccc(Cl)cc1 (stereo not drawn) ?
0

Lookup CC(=O)Nc1nc2cnc(Nc3cc(NC(=O)c4cccc(CC(C)(C)C#N)c4)ccc3C)nc2s1
15

----------
Tested on: PDGFRB
Conditions: concentration: 1 μM,replicates: in singlicate; n = 1
Let's look at some compounds and their measured %Inh.
Write the value in % as a bare number.

                                smiles_text  reported_value
0  Cc1ccc(C(=O)Nc2ccc(Oc3ccc4nc(NC(=O)C5CC5)cn4c3)c(F)c2)c(=O)n1-c1ccccc1            96.5

PDGFRB / %Inh / Cc1cccc2c(-c3ccncc3)c(-c3ccc(F)cc3)nn12.Cl : value?
14

Now the compound O=C(Nc1n[nH]c2cc(-c3ccco3)ccc12)C1CC1
59

// next record COC(=O)c1cccc(NC(=O)NC2CCN(c3ccnc(NCc4ccc(F)cc4)n3)CC2)c1
7

----------
Test system: DYRK1B
Conditions: concentration: 1 μM,replicates: in singlicate; n = 1
So basically, the class depends on measured %Inh, and the ranges are class 1 = under 10%, class 2 = from 10% up to 30%, class 3 = 30% and over

>>> print(df.to_string())
                                   molecule  assigned_class
0  c1ccc(Oc2ccc(Nc3ccnc4ccc(-c5ccccn5)cc34)cc2)cc1         class 1
1                 CCCC(=O)Nc1n[nH]c2ncccc12         class 1

Which class does COC(=O)c1cccc(NC(=O)NC2CCN(c3ccnc(NCc4ccc(F)cc4)n3)CC2)c1 fall in?
class 2

And then O=C(Nc1cccc(Oc2ccc3nccn3n2)c1)Nc1cccc(C(F)(F)F)c1 , what is it?
class 2

Repeat for the following molecule: C[C@@H](Oc1cc(-n2cnc3ccc(-c4ccncc4)cc32)sc1C(N)=O)c1ccccc1Cl
class 3

Ok, now CC(=O)c1c(-c2ccncc2)[nH]c(-c2ccncc2)c1C
class 3

Repeat with Nc1nccc(-c2ccc3c(N)n[nH]c3c2)n1
class 3

Now the molecule COc1cccc(CNC(=O)NC2CCN(c3ccnc(Nc4cc(OC)c(OC)c(OC)c4)n3)C2)c1 (centres unmarked)
class 2

Then this molecule: Cn1ccc2ncnc(Oc3ccc(NC(=O)Nc4cncc(C(F)(F)F)c4)c(Cl)c3)c21
class 1

Next entry: OCCn1cc(-c2cnc3nnn(Cc4ccc5ncccc5c4)c3n2)cn1
class 2

Field entry: CC(C)S(=O)(=O)N1CCN(Cc2ccc3c(c2)nc(NC(=O)c2ccsc2)n3C[C@H](O)c2ccccc2)CC1
class 3

Same thing, different molecule: Cc1ccc(Nc2ccnc(Nc3ccc4c(c3)CS(=O)(=O)C4)n2)cc1O.Cl
class 3

Cl.Cl.NC[C@H](CC1CCCCC1)NC(=O)c1ccc(-c2ccnc3[nH]ccc23)s1 , same question.
class 2

Entry CN1CCN(CCNc2nc3cc(Oc4ccc(NC(=O)Nc5cc(C(F)(F)F)ccc5F)cc4)ccc3[nH]2)CC1.Cl.Cl please
class 2

Please give the result for Cc1ccc(CC(=O)N2CCc3cc(-c4cn(C)c5ncnc(N)c45)ccc32)cc1 too.
class 1

Follow-up entry: COc1cc2ncn(-c3cc(OCC4CCCCC4)c(C(N)=O)s3)c2cc1OC
class 2

Consider next the molecule CC(C)c1nc(-c2cccc(NS(=O)(=O)c3ccccc3)c2)c(-c2ccnc(Nc3ccc4c(c3)CN(C)CC4)n2)s1 in the same way.
class 2

Can you check COc1cc(Nc2nccc(N3CCC(NC(=O)c4cccc(C#N)c4)C3)n2)cc(OC)c1OC (centres unmarked) next?
class 2

Subsequent entry: COc1cccc(C2=C(Nc3cccc(Cl)c3)C(=O)NC2=O)c1
class 1

Then this molecule: CC(C(=O)NC1CCN(c2ccnc(Nc3ccc(F)cc3)n2)C1)c1ccc(Cl)cc1 (centres unmarked)
class 2

# repeat for O=C(NOCC1CC1)c1cc(Br)c(F)c(F)c1Nc1ccc(I)cc1Cl
class 2

Queued: CCNCC(Cc1ccccc1)NC(=O)c1cc(Br)c(-c2ccnc3[nH]ccc23)s1.Cl.Cl (centres unmarked)
class 3

Now the same for Cn1ccc2ncnc(Oc3ccc(NC(=O)Nc4cccc(C(F)(F)F)c4)c(F)c3)c21
class 1

Taken from paper PMC5540273.
